- EXPERIMENT NOTES: Half life in ICR mouse at 3 mg/kg, po administered via gavage measured after 0.25 to 24 hrs by UPLC/MS analysis
- Assay type: ADME, organism-based
- TEST SETTINGS: in vivo
MEASUREMENT NAME: half-life (min)
Field: numeric (min). Do not append units.

Tell me the measured half-life of Cc1ccc(-n2c(C)nnc2-c2ccc3c(c2)N(C2CC2)C(C)C(=O)N3C)cc1 (stereo unspecified) , please. 42

###

- EXPERIMENT NOTES: Half life in rat liver microsomes
- Assay type: ADME, Microsome
MEASUREMENT NAME: half-life (min)
Field: numeric (min). Do not append units.

Tell me the measured half-life of `Cc1ccc(-n2nc(C(=O)N3C[C@@H](C)N[C@@H](C)C3)nc2-c2ccc3c(c2)N(C2CCCC2)[C@H](C)C(=O)N3C)cc1` , please. 49

###

- EXPERIMENT NOTES: AUC (0 to t) in rat plasma at 50 mg/kg, po
- Assay type: ADME, organism-based
MEASUREMENT NAME: AUC(0-t) (ng·h/mL)
Field: numeric (ng·h/mL). Do not append units.

Tell me the measured AUC(0-t) of `Cc1ccc(-n2nc(C(=O)N3C[C@@H](C)N[C@@H](C)C3)nc2-c2ccc3c(c2)N(C2CCCC2)[C@H](C)C(=O)N3C)cc1` , please. 3820

###

- TEST SYSTEM: Bromodomain-containing protein 4 (Homo sapiens)
- EXPERIMENT NOTES: Displacement of 5-FITC labelled (+)-JQ1 from His6-tagged human BRD4 bromodomain 1 expressed in Escherichia coli BL21(DE3) )-codon plus-RIL cells incubated for 4 hrs in dark condition by fluorescence anisotropy binding assay
So basically: is IC50 under 7 nM? Then Met. Not under? Then Not met.

MOLECULE: Cc1ccc(-n2nnnc2-c2ccc3c(c2)N(C2CC2)C(C)C(=O)N3C)cc1 (stereo not drawn)
TEST SYSTEM: Bromodomain-containing protein 4 (Homo sapiens)
LABEL CLASS: Not met

MOLECULE: Cc1ccc(-n2nc(C(=O)N3CCC4(CCOC4)CC3)nc2-c2ccc3c(c2)N(C2CCCC2)[C@H](C)C(=O)N3C)cc1
TEST SYSTEM: Bromodomain-containing protein 4 (Homo sapiens)
LABEL CLASS: Not met

MOLECULE: Cc1ccc(-n2nc(C(=O)N3C[C@@H](NC(=O)OC(C)(C)C)C4(CC4)C3)nc2-c2ccc3c(c2)N(C2CCCC2)[C@H](C)C(=O)N3C)cc1
TEST SYSTEM: Bromodomain-containing protein 4 (Homo sapiens)
LABEL CLASS: Not met

MOLECULE: Cc1ccc(-n2nnnc2-c2ccc3c(c2)N(C2CCCC2)C(C)C(=O)N3C)cc1 (stereo not drawn)
TEST SYSTEM: Bromodomain-containing protein 4 (Homo sapiens)
LABEL CLASS: Not met

MOLECULE: Cc1ccc(-n2cnnc2-c2ccc3c(c2)N(C2CC2)C(C)C(=O)N3C)cc1 (stereo not drawn)
TEST SYSTEM: Bromodomain-containing protein 4 (Homo sapiens)
LABEL CLASS: Not met

MOLECULE: Cc1ccc(-n2nc(C(=O)N3C[C@@H](N)C4(CC4)C3)nc2-c2ccc3c(c2)N(C2CCCC2)[C@H](C)C(=O)N3C)cc1
TEST SYSTEM: Bromodomain-containing protein 4 (Homo sapiens)
LABEL CLASS: Met

MOLECULE: Cc1ccc(-n2nc(C(=O)N3CCN(C)CC3)nc2-c2ccc3c(c2)N(C2CC2)C(C)C(=O)N3C)cc1 (stereo not drawn)
TEST SYSTEM: Bromodomain-containing protein 4 (Homo sapiens)
LABEL CLASS: Not met

MOLECULE: Cc1ccc(-n2nc(C(=O)N3CCN(C4CC4)CC3)nc2-c2ccc3c(c2)N(C2CCCC2)[C@H](C)C(=O)N3C)cc1
TEST SYSTEM: Bromodomain-containing protein 4 (Homo sapiens)
LABEL CLASS: Met

MOLECULE: Cc1ccc(-n2nc(C(=O)N3C4CCC3CN(C)C4)nc2-c2ccc3c(c2)N(C2CCCC2)[C@H](C)C(=O)N3C)cc1
TEST SYSTEM: Bromodomain-containing protein 4 (Homo sapiens)
LABEL CLASS: Met

Pending molecule:
Item Cc1ccc(-n2nc(C(=O)N3CCN4CCCC4C3)nc2-c2ccc3c(c2)N(C2CCCC2)[C@H](C)C(=O)N3C)cc1 (stereo partly drawn) : IC50 beneath 7 nM, strictly? Not met

###

- TEST SYSTEM: Bromodomain-containing protein 4 (Homo sapiens)
- EXPERIMENT NOTES: Displacement of 5-FITC labelled (+)-JQ1 from His6-tagged human BRD4 bromodomain 1 expressed in Escherichia coli BL21(DE3) )-codon plus-RIL cells incubated for 4 hrs in dark condition by fluorescence anisotropy binding assay
MEASUREMENT NAME: IC50 (nM)
Field: numeric (nM). Do not append units.

Notebook: pull reported IC50 for Bromodomain-containing protein 4 (Homo sapiens), entry `C[C@@H]1C(=O)N(C)c2ccc(-c3nc(C(=O)N4CCN(C)CC4)nn3-c3ccccc3)cc2N1C1CCCC1` 7.1

Notebook: pull reported IC50 for Bromodomain-containing protein 4 (Homo sapiens), entry `Cc1ccc(-n2nc(C(=O)N(C)CCN(C)C)nc2-c2ccc3c(c2)N(C2CCCC2)[C@H](C)C(=O)N3C)cc1` 7

Notebook: pull reported IC50 for Bromodomain-containing protein 4 (Homo sapiens), entry `C[C@@H]1C(=O)N(C)c2ccc(-c3nc(C(=O)N4CCN(C)CC4)nn3-c3ccc(Cl)cc3)cc2N1C1CCCC1` 6.8
